B1: SNAP91 (parent)
chain: FAQPMMRPPFGAAAVPGTQLSPSP

- Variants of: B1
- protocol-details: protein stability index of a GFP-peptide fusion (GPS, HEK-293T) (PSI 1-6); higher = more stable;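 further: lentivirally expressed fusions sorted by FACS into six bins by GFP to DsRed ratio, PSI derived from sequencing read proportions per bin multiplied by bin number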
- measurement-context: c terminus: a fixed tail appended
measure-name: protein stability index
Could you keep your reply to the number by itself?

Value of protein stability index reported for the variant A13L is 2.63

Value of protein stability index reported for the variant G17Q is 3.48

Value of protein stability index reported for the variant R7D is 3.13

Value of protein stability index reported for the variant P22I is 2.75

Value of protein stability index reported for the variant M6G is 3.01

Value of protein stability index reported for the variant P8L is 2.87

Value of protein stability index reported for the variant Q3M is 2.93

Value of protein stability index reported for the variant R7V is 2.49

Value of protein stability index reported for the variant G11R is 4.01

Value of protein stability index reported for the variant L20Q is 4.04

Value of protein stability index reported for the variant P22K is 3
